- Tested on: hypoxia-inducible endogenous VEGF expression in HeLa cells
- experiment description: Hypoxia-inducible endogenous VEGF expression, VEGF ELISA of conditioned media (dose-response EC50)
- Type: cell-based
- condition notes: Homo sapiens, HeLa cells, hypoxic conditions (1% O2)
- From the text: The ability of the compounds of the invention to modulate hypoxia-inducible endogenous VEGF expression may be analyzed as follows. VEGF protein levels may be monitored by an ELISA assay (R&D Systems). […] The conditioned media may then be assayed by ELISA, and the concentration of VEGF calculated from the standard ELISA curve of each assay. A dose-response analysis may be performed using the ELISA assay and conditions described above. […] A series of, e.g., seven different concentrations may be analyzed. […]
EC50: recorded values

# annotated cases, reported EC50 shown
CCOC(=O)N1CCc2c([nH]c3ccc(Cl)cc23)C1c1ccc(OCCCN(C)C)cc1 (stereo not shown)
8 to 40 nM
CCOC(=O)N1CCc2c([nH]c3ccc(Cl)cc23)C1c1cccc(C(=O)NCCOC)c1 (stereo not shown)
200 to 1000 nM
CCOC(=O)N1CCc2c([nH]c3ccc(Br)cc23)C1c1ccc(C(=O)N(C)CCN(C)C)cc1 (stereo not shown)
200 to 1000 nM

Next compound, please.
// EC50 lookup, compound = CCOC(=O)N1CCc2c([nH]c3ccc(Cl)cc23)C1c1ccc(C(=O)NCCN2CCOCC2)cc1 (stereo not shown) , result: 40 to 200 nM
